Just for reference, paper PMC7251097 is where these values come from.

# study.system: His6-AspH315–758 (human aspartate/asparagine-β-hydroxylase, AspH) (Homo sapiens, UniProt Q12797)
# Construct: N-Terminally His6-tagged human AspH315–758 (His6-AspH315–758) was produced in E. coli BL21 (DE3) cells; made in house; host or cells: E. coli BL21 (DE3), pET-28a(+) vector
# Sequence (Q12797 315-758): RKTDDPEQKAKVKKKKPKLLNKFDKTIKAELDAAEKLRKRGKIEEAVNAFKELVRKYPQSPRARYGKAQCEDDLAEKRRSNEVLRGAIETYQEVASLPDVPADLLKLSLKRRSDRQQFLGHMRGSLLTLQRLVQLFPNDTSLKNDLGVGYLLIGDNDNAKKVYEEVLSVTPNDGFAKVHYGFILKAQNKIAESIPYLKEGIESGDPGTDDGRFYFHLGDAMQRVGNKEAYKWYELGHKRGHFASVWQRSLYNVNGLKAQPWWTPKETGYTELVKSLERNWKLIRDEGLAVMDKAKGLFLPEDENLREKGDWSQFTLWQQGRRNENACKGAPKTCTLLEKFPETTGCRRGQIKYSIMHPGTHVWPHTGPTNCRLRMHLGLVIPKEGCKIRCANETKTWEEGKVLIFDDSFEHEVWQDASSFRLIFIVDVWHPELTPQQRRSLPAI
# method.summary: SPE-MS AspH inhibition assay (LOPAC screen at fixed 20 μM and IC50 dose-response), hydroxylation of cyclic peptide hFX-CP101–119
# Assay type: biochemical
# measurement.context: LOPAC Plate 4, compound at 20 uM, substrate conversion
Where a name gives a salt, the structure may show the parent alone.
Parameter % conversion: see the listing below.
readout.label: % conversion (%)

compound: O=c1c(O)c(-c2ccc(O)c(O)c2)oc2cc(O)cc(O)c12 [quercetin, reference compound]
readout.label: % conversion
recorded.measurement: 3.10

compound: N#CC(=C(/N)Sc1ccccc1N)/C(C#N)=C(/N)Sc1ccccc1N
readout.label: % conversion
recorded.measurement: 36.57

compound: C#CCN(C)Cc1ccccc1 [Pargyline hydrochloride]
readout.label: % conversion
recorded.measurement: 31.34

compound: NCCCCNCCCN [Spermidine trihydrochloride]
readout.label: % conversion
recorded.measurement: 36.29

compound: CCCCS(=O)(=O)N[C@@H](Cc1ccc(OCCCCC2CCNCC2)cc1)C(=O)O [Tirofiban hydrochloride monohydrate]
readout.label: % conversion
recorded.measurement: 29.35

compound: CC/C(=C(\c1ccccc1)c1ccc(OCCN(C)C)cc1)c1ccccc1 [Tamoxifen citrate]
readout.label: % conversion
recorded.measurement: 11.73

compound: CC[C@]1(O)C[C@H]2CN(CCc3c([nH]c4ccccc34)[C@@](C(=O)OC)(c3cc4c(cc3OC)N(C=O)[C@H]3[C@@](O)(C(=O)OC)[C@H](OC(C)=O)[C@]5(CC)C=CCN6CC[C@]43[C@@H]65)C2)C1 [Vincristine sulfate]
readout.label: % conversion
recorded.measurement: 40.04

compound: COc1ccc(C2CNC(=O)C2)cc1OC1CCCC1 (stereo not shown)
readout.label: % conversion
recorded.measurement: 37.72

compound: CN1C2CCCC1CC(NC(=O)c1nn(C)c3ccccc13)C2 (stereo not shown) [Granisetron hydrochloride]
readout.label: % conversion
recorded.measurement: 34.30

compound: CNCC[C@@H](Oc1ccccc1C)c1ccccc1
readout.label: % conversion
recorded.measurement: 38.97

compound: C[C@H](c1ccc(F)cc1CCCC(=O)O)N(c1cc(F)ccc1F)S(=O)(=O)c1ccc(Cl)cc1
readout.label: % conversion
recorded.measurement: 36.70

compound: CN(C)CCCN1c2ccccc2Sc2ccccc21 [Promazine hydrochloride]
readout.label: % conversion
recorded.measurement: 39.62

compound: COC1(C2=NCCN2)COc2ccccc2O1.Cl (stereo not shown) [RX 821002 hydrochloride]
readout.label: % conversion
recorded.measurement: 41.17

compound: N[C@H](C(=O)O)[C@H](Cc1ccccc1)C(=O)O [L-Beta-threo-benzyl-aspartate]
readout.label: % conversion
recorded.measurement: 30.62

compound: COc1cccc(NC(=O)/C=C/c2ccc(Cl)cc2)c1
readout.label: % conversion
recorded.measurement: 36.39

compound: CCN1CCCC1CNC(=O)c1cc(S(=O)(=O)CC)c(N)cc1OC (stereo not shown) [Amisulpride]
readout.label: % conversion
recorded.measurement: 40.99

compound: OC(CCN1CCCCC1)(c1ccccc1)C1CCCCC1 (stereo not shown) [Trihexyphenidyl hydrochloride]
readout.label: % conversion
recorded.measurement: 39.76

compound: COc1ccccc1CN[C@@H]1CCCN[C@@H]1c1ccccc1.Cl.Cl.O [CP-100263 dihydrochloride hydrate]
readout.label: % conversion
recorded.measurement: 41.75

compound: Oc1ccc(/C=C/c2cc(O)cc(O)c2)cc1
readout.label: % conversion
recorded.measurement: 34.33

compound: CN(C)S(=O)(=O)c1ccc2c(c1)/C(=C/c1cc3c([nH]1)CCCC3)C(=O)N2
readout.label: % conversion
recorded.measurement: 31.14

compound: NC(=O)c1ncn([C@@H]2O[C@H](CO)[C@@H](O)[C@H]2O)n1
readout.label: % conversion
recorded.measurement: 38.92

compound: Oc1ccc2ccccc2c1SSc1c(O)ccc2ccccc12 [IPA-3, reference compound]
readout.label: % conversion
recorded.measurement: 2.34

compound: CC(C)(C)c1ccc(C(O)CCCN2CCC(C(O)(c3ccccc3)c3ccccc3)CC2)cc1 (stereo not shown)
readout.label: % conversion
recorded.measurement: 45.15

compound: CC(NCCc1ccc(O)cc1)C(O)c1ccc(O)cc1 (stereo not shown) [Ritodrine hydrochloride]
readout.label: % conversion
recorded.measurement: 37.24

compound: CCCN1C[C@H](CSC)C[C@@H]2c3cccc4[nH]cc(c34)C[C@H]21 [Pergolide methanesulfonate]
readout.label: % conversion
recorded.measurement: 40.48

compound: Nc1ccc(S(=O)(=O)Nc2ccnn2-c2ccccc2)cc1
readout.label: % conversion
recorded.measurement: 26.59

compound: C=CC1=C(C)c2cc3[nH]c(cc4nc(cc5[nH]c(cc1n2)c(C)c5CCC(=O)O)C(CCC(=O)O)=C4C)c(C)c3C=C [Protoporphyrin IX disodium]
readout.label: % conversion
recorded.measurement: 20.78

compound: Cc1ccc(C(=O)Nc2ccc(S(=O)(=O)[O-])c3cc(S(=O)(=O)[O-])cc(S(=O)(=O)[O-])c23)cc1NC(=O)c1cccc(NC(=O)Nc2cccc(C(=O)Nc3cc(C(=O)Nc4ccc(S(=O)(=O)[O-])c5cc(S(=O)(=O)[O-])cc(S(=O)(=O)[O-])c45)ccc3C)c2)c1.[Na+].[Na+].[Na+].[Na+].[Na+].[Na+] [Suramin sodium salt, reference compound]
readout.label: % conversion
recorded.measurement: 1.22

compound: O=c1n(CCCN2CCN(c3cccc(Cl)c3)CC2)nc2ccccn12 [Trazodone hydrochloride]
readout.label: % conversion
recorded.measurement: 39.67

compound: CC(C)(C)c1cc(C(C)(C)C)c2c(c1)C(O)(C(F)(F)F)C(=O)O2 (racemic)
readout.label: % conversion
recorded.measurement: 11.89

compound: CCCCCCCCCC(=O)NC(CN1CCOCC1)[C@H](O)c1ccccc1.Cl (mixture of isomers)
readout.label: % conversion
recorded.measurement: 45.09
